Reference for the values: patent US20230069722A1

test system: SK-BR-3 human breast adenocarcinoma cell line; test: SK-BR-3 anti-proliferation / cell kill assay (CellTiter-Glo, 144 hrs); assay type: cell-based; conditions: Homo sapiens, SK-BR-3, read-out: SK-BR-3 IC50
pIC50: −log10 of the molar value.
Quick reference for pIC50 among some compounds

{"columns": ["smiles_input", "bound_type", "pIC50"],
 "data": [
  ["CCCCCCN(C(=O)[C@@H](NC(=O)[C@H]1CCCCN1C)[C@@H](C)CC)[C@H](C[C@@H](OCC)c1nc(C(=O)N[C@@H](Cc2ccc(NC(=O)CN)c(F)c2)CC(C)(C)C(=O)O)cs1)C(C)C", "=", 10.30],
  ["CCCCCCN(C(=O)[C@@H](NC(=O)[C@H]1CCCCN1C)[C@@H](C)CC)[C@H](C[C@@H](OC(C)=O)c1nc(C(=O)N[C@@H](Cc2ccc(NC(=O)CN)c(F)c2)CC(C)(C)C(=O)O)cs1)C(C)C", "=", 10.52],
  ["CCCCCCN(C(=O)[C@@H](NC(=O)[C@H]1CCCCN1)[C@@H](C)CC)[C@H](C[C@@H](OCC)c1nc(C(=O)N[C@@H](Cc2ccc(NC(=O)CN)cc2)CC(C)(C)C(=O)O)cs1)C(C)C", "<", 9.00]
]}

###

tested on: SK-BR-3 human breast adenocarcinoma cell line; test: SK-BR-3 anti-proliferation / cell kill assay (CellTiter-Glo, 144 hrs); format: cell-based; conditions: Homo sapiens, SK-BR-3, read-out: SK-BR-3 IC50
Entries and their IC50 values follow.

{"columns": ["smiles_input", "IC50, nM"],
 "data": [
  ["CCCCCCN(C(=O)[C@@H](NC(=O)[C@H]1CCCCN1C)[C@@H](C)CC)[C@H](C[C@@H](OCC)c1nc(C(=O)N[C@@H](Cc2ccc(NC(=O)CN)cc2)CC(C)(C)C(=O)O)cs1)C(C)C", 0.07],
  ["CCCCCCN(C(=O)[C@@H](NC(=O)[C@H]1CCCCN1C)[C@@H](C)CC)[C@H](C[C@@H](OC(C)=O)c1nc(C(=O)N[C@@H](Cc2ccc(NC(=O)CN)cc2)CC(C)(C)C(=O)O)cs1)C(C)C", 0.03],
  ["CCCCCCN(C(=O)[C@@H](NC(=O)[C@H]1CCCCN1C)[C@@H](C)CC)[C@H](C[C@@H](O)c1nc(C(=O)N[C@@H](Cc2ccc(NC(=O)CN)c(F)c2)CC(C)(C)C(=O)O)cs1)C(C)C", 0.86]
]}
